Tested on: NCI-H727
Assay: relative viability (nuclei count vs DMSO), 5 days (fraction); higher = more cells survive
Details: first compound 0.05 µM
Property measured: relative viability

>>> endpoint_value("Nc1ccn([C@@H]2O[C@H](CO)[C@@H](O)[C@@H]2O)c(=O)n1 [Cytarabine] + O=C(c1cc(Cc2n[nH]c(=O)c3ccccc23)ccc1F)N1CCN(C(=O)C2CC2)CC1 [Olaparib] (partner 8 µM)")
0.679
>>> endpoint_value("COc1cc2nccc(Oc3ccc(NC(=O)Nc4cc(C)on4)c(Cl)c3)c2cc1OC [Tivozanib] + CC(=O)Nc1cccc(-n2c(=O)n(C3CC3)c(=O)c3c(Nc4ccc(I)cc4F)n(C)c(=O)c(C)c32)c1 [Trametinib] (partner 0.02 µM)")
0.366
>>> endpoint_value("Nc1ccn([C@@H]2O[C@H](CO)[C@@H](O)[C@@H]2O)c(=O)n1 [Cytarabine] + CC(C)C[C@H](NC(=O)[C@H](Cc1ccccc1)NC(=O)c1cnccn1)B(O)O [Bortezomib] (partner 0.002 µM)")
0.484

* * *

Test system: LC-2-ad
Experiment: relative viability (nuclei count vs DMSO), 5 days (fraction); higher = more cells survive
Conditions: first compound 500 µM
We begin with a simple list: items and their reported relative viability.
Property measured: relative viability

>>> endpoint_value("O=C(O)CCCCC(CCSCc1ccccc1)SCc1ccccc1 (centres undefined) [CPI-613] + Nc1ncn([C@H]2C[C@H](O)[C@@H](CO)O2)c(=O)n1 [Decitabine] (partner 2 µM)")
0.0132
>>> endpoint_value("O=C(O)CCCCC(CCSCc1ccccc1)SCc1ccccc1 (centres undefined) [CPI-613] + CS(=O)(=O)N1CCN(Cc2cc3nc(-c4cccc5[nH]ncc45)nc(N4CCOCC4)c3s2)CC1 [Pictilisib] (partner 1 µM)")
0.0075
>>> endpoint_value("O=C(O)CCCCC(CCSCc1ccccc1)SCc1ccccc1 (centres undefined) [CPI-613] + NC(=O)Nc1cc(-c2cccc(F)c2)sc1C(=O)N[C@H]1CCCNC1 [AZD7762] (partner 0.2 µM)")
0.01
>>> endpoint_value("O=C(O)CCCCC(CCSCc1ccccc1)SCc1ccccc1 (centres undefined) [CPI-613] + Nc1nc2[nH]cc(CCc3ccc(C(=O)N[C@@H](CCC(=O)O)C(=O)O)cc3)c2c(=O)[nH]1 [Pemetrexed] (partner 0.2 µM)")
0.0144

* * *

System: NCI-H2009
Assay: relative viability (nuclei count vs DMSO), 5 days (fraction); higher = more cells survive
Settings: first compound 0.253 µM
Property measured: relative viability

>>> endpoint_value("O=c1[nH]c2ccccc2n1C1CCN(CCCC(c2ccc(F)cc2)c2ccc(F)cc2)CC1 [Pimozide] + CS(=O)(=O)N1CCN(Cc2cc3nc(-c4cccc5[nH]ncc45)nc(N4CCOCC4)c3s2)CC1 [Pictilisib] (partner 1 µM)")
0.923
>>> endpoint_value("Cc1cnc(-c2cnc(NCCNc3ccc(C#N)cn3)nc2-c2ccc(Cl)cc2Cl)[nH]1 + CC(=O)Nc1cccc(-n2c(=O)n(C3CC3)c(=O)c3c(Nc4ccc(I)cc4F)n(C)c(=O)c(C)c32)c1 [Trametinib] (partner 0.02 µM)")
0.273
>>> endpoint_value("O=c1[nH]c2ccccc2n1C1CCN(CCCC(c2ccc(F)cc2)c2ccc(F)cc2)CC1 [Pimozide] + Nc1nc2[nH]cc(CCc3ccc(C(=O)N[C@@H](CCC(=O)O)C(=O)O)cc3)c2c(=O)[nH]1 [Pemetrexed] (partner 0.2 µM)")
1
>>> endpoint_value("O=c1[nH]c2ccccc2n1C1CCN(CCCC(c2ccc(F)cc2)c2ccc(F)cc2)CC1 [Pimozide] + CS(=O)(=O)CCNCc1ccc(-c2ccc3ncnc(Nc4ccc(OCc5cccc(F)c5)c(Cl)c4)c3c2)o1 [Lapatinib] (partner 2 µM)")
0.977
>>> endpoint_value("O=c1[nH]c2ccccc2n1C1CCN(CCCC(c2ccc(F)cc2)c2ccc(F)cc2)CC1 [Pimozide] + O=C(CCCCCCC(=O)Nc1ccccc1)NO [Vorinostat] (partner 1 µM)")
0.764
>>> endpoint_value("O=c1[nH]c2ccccc2n1C1CCN(CCCC(c2ccc(F)cc2)c2ccc(F)cc2)CC1 [Pimozide] + N=C(N)NC(=N)NCCc1ccccc1 [Phenformin] (partner 250 µM)")
0.479
